The values you see were collected from PubChem BioAssay (NCATS).

- Test protocol: qHTS for Inhibitors of Plasmodium falciparum (GB4) proliferation (AID 504315); note: nearly all actives have a fitted effect of over 50% in size
- Test parameters: P. falciparum GB4 in erythrocytes, SYBR Green DNA, 72 h; series mostly up to 6.7 µM
Records with an inconclusive call do not appear. Active and inactive are the calls of the source. Calls come from the whole dose curve; as a rule, active = well fitted inhibition curve with a large enough effect; inconclusive = small, poorly fitted or top-dose-only effect, or effect the other way; inactive = flat fitted curve, though single readings scatter.
Would you mind answering with one of these outcomes? Y for active, N for inactive

1) CC1=CC[C@@H](COc2ccccc2)O[C@@]2(C1)C(=O)N(CC1CC1)c1ccccc12 ... N
2) C=C(CCN1C=C(C(C)=O)C(c2ccccc2)NC1=O)c1ccccc1 (stereo not given) ... N
3) CCCCCCCC1=Cc2ccccc2C(CC(C)=O)N1C(=O)OC (stereo not given) ... N

Query: recorded result category for COCCN1C(=O)C2=C(C1=O)C1N(C)c3ccccc3[C@@]13C[C@@H](CO)N(C(C)=O)C3=N2 (stereo not given in full) in this test N

Query: recorded result category for `C=CC[C@](C)(Nc1ccc(OC)cc1)C(=O)OCC` in this test N

Query: recorded result category for `CC(C)=CCCC(C)=CCON=C1C[C@@H](O)[C@@H](O)[C@@H]2[C@H]3C(=O)N(Cc4ccc5c(c4)OCO5)C(=O)[C@@H]3CC[C@@H]12` in this test N

Query: recorded result category for `Oc1ccc2c(c1-c1c(O)c(Br)cc3c1CCCC3)CCCC2` in this test N

Query: recorded result category for `COc1ccc2c3c(c(=O)oc2c1)[C@H]1O[C@](c2ccsc2)(Cc2ccccc21)O3` in this test Y

Query: recorded result category for `C#CCN1C(=O)[C@]2(OCCC=C[C@H]2C)c2ccccc21` in this test N

Query: recorded result category for `COc1ccc([C@]23Cc4c(ccc5ccccc45)[C@H](O2)c2c(cc(-c4ccccc4)oc2=O)O3)cc1` in this test N

Query: recorded result category for `C=C(CO[C@@H]1C=C[C@@H](c2ccccc2)O[C@@H]1CO)c1ccccc1` in this test N

Query: recorded result category for C#CCN1C(=O)C2(CC(C)=C[C@@H](C)O2)c2c(Br)cccc21 (stereo not given in full) in this test N

Query: recorded result category for `COC(=O)N[C@@H](CCc1ccccc1)[C@]1(C(=O)OC)CCCC1=O` in this test N
